In what follows, each item is paired with its IC50 for Disintegrin and metalloproteinase domain-containing protein 17 (Homo sapiens).
parameter measured: IC50 (nM)

The examples below pair each entry with its known result.
molecule=CC(C)C[C@H]1C(=O)N[C@H](C(=O)NCC(=O)N(C)C)CCCCN(C)C(=O)OCCC[C@@H]1C(=O)NO measured_number=300
molecule=CC(C)C[C@H]1C(=O)N[C@H](C(=O)NCC(=O)N2CCN(C)CC2)CCCCNC(=O)OCCC[C@@H]1C(=O)NO measured_number=160
molecule=CC(C)C[C@H]1C(=O)N[C@H](C(=O)NCC(=O)Nc2ccc(F)cc2F)Cc2ccc(cc2)OCCC[C@@H]1C(=O)NO measured_number=700

[P] CC(C)C[C@H]1C(=O)N[C@H](C(=O)NCC(=O)N2CC(C)OC(C)C2)CCCCNC(=O)OCCC[C@@H]1C(=O)NO (stereo not given in full)
[Q] CNC(=O)[C@H](NC(=O)[C@@H]1CCCCNC(=O)OCCC[C@H](C(=O)NO)[C@@H](CC(C)C)C(=O)N1)C(C)(C)C
Pick one, P or Q : lowest reported IC50. Write down the label attached to your selection. P
(P: 150 nM, Q: 1200 nM)
